assay.text: H524 tumor biodistribution model: tumor and plasma levels of SMDC and MMAE by LC/MS-MS
Type: in vivo, female Athymic nude mice
applied.conditions: MMAE level 4 h after 500 nmol/kg IV of the conjugate, H524 tumor bearing nude mice
The following compounds are shown together with reported MMAE Tumor values.
Form entry: value (nM) — number only.

Field: example entries. Status: answers known.
chemical.structure	test.result
CC[C@H](C)[C@@H]([C@@H](CC(=O)N1CCC[C@H]1[C@H](OC)[C@@H](C)C(=O)N[C@H](C)[C@@H](O)c1ccccc1)OC)N(C)C(=O)[C@@H](NC(=O)[C@H](C(C)C)N(C)C(=O)OCc1ccc(NC(=O)[C@H](CCCNC(N)=O)NC(=O)[C@@H](NC(=O)[C@H](CCC(=O)O)NC(=O)CCOCCC(=O)NCCNc2ncc(-c3cc(C)cc(F)c3)c(N3CCC(N)CC3)c2-c2nc3ccc(Cl)cc3[nH]2)C(C)C)cc1C(=O)NCCN)C(C)C	65.7
CC[C@H](C)[C@@H]([C@@H](CC(=O)N1CCC[C@H]1[C@H](OC)[C@@H](C)C(=O)N[C@H](C)[C@@H](O)c1ccccc1)OC)N(C)C(=O)[C@@H](NC(=O)[C@H](C(C)C)N(C)C(=O)OCc1ccc(NC(=O)[C@H](CCCNC(N)=O)NC(=O)[C@@H](NC(=O)CCOCCC(=O)NCCNc2ncc(-c3cc(C)cc(F)c3)c(N3CCC(N)CC3)c2-c2nc3ccc(Cl)cc3[nH]2)C(C)C)c(O[C@@H]2O[C@H](C(=O)O)[C@@H](O)[C@H](O)[C@H]2O)c1)C(C)C	75.0

Data request: Find the recorded MMAE Tumor belonging to CC[C@H](C)[C@@H]([C@@H](CC(=O)N1CCC[C@H]1[C@H](OC)[C@@H](C)C(=O)N[C@H](C)[C@@H](O)c1ccccc1)OC)N(C)C(=O)[C@@H](NC(=O)[C@H](C(C)C)N(C)C(=O)OCc1ccc(NC(=O)[C@H](C)NC(=O)[C@@H](NC(=O)CCOCCC(=O)NCCNc2ncc(-c3cc(C)cc(F)c3)c(N3CCC(N)CC3)c2-c2nc3ccc(Cl)cc3[nH]2)C(C)C)c(O[C@@H]2O[C@H](C(=O)O)[C@@H](O)[C@H](O)[C@H]2O)c1)C(C)C and report it.
Data returned: 197

---

target.desc: SST2 (Homo sapiens)
Construct: host or cells: PathHunter CHO-K1 SST2 cells
Sequence (P30874 whole entry): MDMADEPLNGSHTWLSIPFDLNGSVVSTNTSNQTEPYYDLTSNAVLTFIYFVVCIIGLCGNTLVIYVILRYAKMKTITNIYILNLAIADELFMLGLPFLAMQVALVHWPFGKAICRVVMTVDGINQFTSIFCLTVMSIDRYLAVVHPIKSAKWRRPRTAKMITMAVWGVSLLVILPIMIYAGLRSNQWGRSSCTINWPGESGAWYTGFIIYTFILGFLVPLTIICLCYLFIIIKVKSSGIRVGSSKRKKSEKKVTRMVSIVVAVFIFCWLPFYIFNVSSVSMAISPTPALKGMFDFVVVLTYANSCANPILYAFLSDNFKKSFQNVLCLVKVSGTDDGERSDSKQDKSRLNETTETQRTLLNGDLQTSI
assay.text: PathHunter CHO-K1 SST2 internalization assay
Assay type: cell-based
applied.conditions: PathHunter CHO-K1 SST2, 90 min; read-out: Internalization EC50
Starred links: 1 amine or outer side, 2 acyl side, 3 side chain; linkers in the order of their positions; H or OH if unused. Non-standard residues stand in square brackets, D forms with d. Residues, ends and D or L forms follow the SMILES beside them. *: point of attachment. X1 = Cc1cc(F)cc(-c2cnc(NCCNC(=O)CCOCCC(=O)*)c(-c3nc4ccc(Cl)cc4[nH]3)c2N2CCC(N)CC2)c1; Dolaproine = CO[C@@H]([C@@H]1CCCN1)[C@@H](C)C(=O)O; Dil = CC[C@H](C)[C@H](NC)[C@@H](CC(=O)O)OC; PABC = O=C(OCc1ccc(N[*:1])cc1)[*:2]; X2 = C[C@@H](N*)[C@@H](O)c1ccccc1; Cya = N[C@@H](CS(=O)(=O)O)C(=O)O; Cit = NC(=O)NCCC[C@H](N)C(=O)O; NMeV = CN[C@H](C(=O)O)C(C)C
observable: EC50 (nM)
Give the value, in units of nM, as a plain number.

molecule	EC50, nM
CC[C@H](C)[C@@H]([C@@H](CC(=O)N1CCC[C@H]1[C@H](OC)[C@@H](C)C(=O)N[C@H](C)[C@@H](O)c1ccccc1)OC)N(C)C(=O)[C@@H](NC(=O)[C@H](C(C)C)N(C)C(=O)OCc1ccc(NC(=O)[C@H](CCCNC(N)=O)NC(=O)[C@@H](NC(=O)[C@H](CCC(=O)O)NC(=O)CCOCCOCCOCCOCCC(=O)NCCNc2ncc(-c3cc(C)cc(F)c3)c(N3CCC(N)CC3)c2-c2nc3ccc(Cl)cc3[nH]2)C(C)C)cc1C(=O)NCCN)C(C)C [Compound 47]	9
CC[C@H](C)[C@@H]([C@@H](CC(=O)N1CCC[C@H]1[C@H](OC)[C@@H](C)C(=O)N[C@H](C)[C@@H](O)c1ccccc1)OC)N(C)C(=O)[C@@H](NC(=O)[C@H](C(C)C)N(C)C(=O)OCc1ccc(NC(=O)[C@H](CCCNC(N)=O)NC(=O)[C@@H](NC(=O)[C@H](CCC(N)=O)NC(=O)CCOCCC(=O)NCCNc2ncc(-c3cc(C)cc(F)c3)c(N3CCC(N)CC3)c2-c2nc3ccc(Cl)cc3[nH]2)C(C)C)cc1C(=O)NCCN)C(C)C [Compound 57]	5.7
CC[C@H](C)[C@@H]([C@@H](CC(=O)N1CCC[C@H]1[C@H](OC)[C@@H](C)C(=O)N[C@H](C)[C@@H](O)c1ccccc1)OC)N(C)C(=O)[C@@H](NC(=O)[C@H](C(C)C)N(C)C(=O)OCc1ccc(NC(=O)[C@H](CCCNC(N)=O)NC(=O)[C@@H](NC(=O)[C@H](CCC(=O)O)NC(=O)[C@H](CS(=O)(=O)O)NC(=O)CCOCCC(=O)NCCNc2ncc(-c3cc(C)cc(F)c3)c(N3CCC(N)CC3)c2-c2nc3ccc(Cl)cc3[nH]2)C(C)C)cc1)C(C)C [Compound 113] (X1-[Cya]EV[Cit][PABC][NMeV]V[Dil][Dolaproine]-X2)	30

Data request: Can you look up EC50 on SST2 (Homo sapiens) for CC[C@H](C)[C@@H]([C@@H](CC(=O)N1CCC[C@H]1[C@H](OC)[C@@H](C)C(=O)N[C@H](C)[C@@H](O)c1ccccc1)OC)N(C)C(=O)[C@@H](NC(=O)[C@H](C(C)C)N(C)C(=O)OCc1ccc(NC(=O)[C@H](C)NC(=O)[C@@H](NC(=O)[C@H](CCC(=O)O)NC(=O)CCOCCC(=O)NCCNc2ncc(-c3cc(C)cc(F)c3)c(N3CCC(N)CC3)c2-c2nc3ccc(Cl)cc3[nH]2)C(C)C)cc1C(=O)NCCN)C(C)C [Compound 116] ?
Data returned: 3.9
